Source of measurements: patent US8501936B2

- TARGET DESC: human FAK (Homo sapiens (Human))
- Sequence (Q05397 whole entry): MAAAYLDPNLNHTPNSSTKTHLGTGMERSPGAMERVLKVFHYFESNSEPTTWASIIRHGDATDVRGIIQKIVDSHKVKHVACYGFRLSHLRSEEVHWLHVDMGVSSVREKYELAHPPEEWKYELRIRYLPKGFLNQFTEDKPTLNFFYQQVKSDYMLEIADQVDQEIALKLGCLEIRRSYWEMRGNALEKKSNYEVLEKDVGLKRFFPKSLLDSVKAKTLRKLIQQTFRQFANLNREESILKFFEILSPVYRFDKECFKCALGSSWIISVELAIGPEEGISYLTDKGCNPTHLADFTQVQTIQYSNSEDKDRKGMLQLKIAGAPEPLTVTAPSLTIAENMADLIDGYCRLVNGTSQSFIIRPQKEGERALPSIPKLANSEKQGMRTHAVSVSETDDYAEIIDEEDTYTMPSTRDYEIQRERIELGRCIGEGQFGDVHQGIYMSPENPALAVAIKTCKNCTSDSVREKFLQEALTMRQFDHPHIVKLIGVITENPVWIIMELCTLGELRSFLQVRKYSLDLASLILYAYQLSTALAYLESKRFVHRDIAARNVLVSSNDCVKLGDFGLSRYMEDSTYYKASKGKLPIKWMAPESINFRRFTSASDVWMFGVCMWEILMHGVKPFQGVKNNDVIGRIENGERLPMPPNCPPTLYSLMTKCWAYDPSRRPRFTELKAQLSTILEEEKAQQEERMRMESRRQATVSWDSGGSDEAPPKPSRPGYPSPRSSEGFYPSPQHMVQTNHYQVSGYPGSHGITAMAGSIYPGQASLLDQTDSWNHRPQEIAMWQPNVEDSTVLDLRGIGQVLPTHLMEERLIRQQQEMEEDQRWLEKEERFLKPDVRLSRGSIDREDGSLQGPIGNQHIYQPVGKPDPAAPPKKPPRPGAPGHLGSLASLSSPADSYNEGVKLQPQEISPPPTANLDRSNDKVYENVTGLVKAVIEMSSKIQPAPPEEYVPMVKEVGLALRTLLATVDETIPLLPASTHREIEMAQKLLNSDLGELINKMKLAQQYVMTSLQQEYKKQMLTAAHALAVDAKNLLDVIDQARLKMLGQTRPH
- DETAILS: read-out: FAK IC50
# 1 = IC50 below 2000 nM (exclusive); 0 = IC50 at/above 2000 nM

{"MOLECULE": "CS(=O)(=O)c1ccc(Oc2cccn3nc(Nc4cnn(CCN5CCCC5)c4)nc23)cc1 [Example 217]", "LABEL": 1}
{"MOLECULE": "COc1ccc(Nc2nc3c(-c4ccc(S(C)(=O)=O)cc4)cccn3n2)cc1 [Example 19]", "LABEL": 1}
{"MOLECULE": "CC(C)(C)OC(=O)N1CCC(n2cc(Nc3nc4c(-c5ccc(S(C)(=O)=O)cc5)cccn4n3)cn2)CC1 [Example 212]", "LABEL": 0}
{"MOLECULE": "CS(=O)(=O)c1ccc(-c2cccn3nc(Nc4cccc(N5CCN(CC(N)=O)CC5)c4)nc23)cc1 [Example 183]", "LABEL": 0}

Bench note: check whether CN1CCN(C2CCN(c3ccc(Nc4nc5c(-c6ccc(S(C)(=O)=O)cc6)cccn5n4)cc3)CC2)CC1 [Example 51] shows IC50 below 2000 nM 1

====

Reported IC50 values are given for each entry in this list.
- TARGET DESC: human FAK (Homo sapiens (Human))
- DETAILS: read-out: FAK IC50
Could you give me the number in nM? Just the number is fine.

{"COMPOUND": "CN1CCN(c2cccc(Nc3nc4c(-c5ccc(P(C)(C)=O)cc5)cccn4n3)c2)CC1", "TARGET DESC": "human FAK (Homo sapiens (Human))", "IC50 [nM]": 10000}
{"COMPOUND": "COc1ccccc1CNc1cccn2nc(Nc3cccc(N4CCN(C)CC4)c3)nc12", "TARGET DESC": "human FAK (Homo sapiens (Human))", "IC50 [nM]": 951}
{"COMPOUND": "CN1CCC(c2cccc(Nc3nc4c(-c5ccccc5N(C)S(C)(=O)=O)cccn4n3)c2)CC1", "TARGET DESC": "human FAK (Homo sapiens (Human))", "IC50 [nM]": 3000}
{"COMPOUND": "CC(C)COc1ccc(C(F)(F)F)cc1-c1cccn2nc(Nc3ccc4c(c3)CCNCC4)nc12", "TARGET DESC": "human FAK (Homo sapiens (Human))", "IC50 [nM]": 3000}

I have this compound here, `CN1CCC(c2ccc(Nc3nc4c(NCc5ccccc5N(C)S(C)(=O)=O)cccn4n3)cc2)CC1` , and I need its recorded IC50. 13.6

What does the record list as IC50 for CC(Nc1cccn2nc(Nc3ccc(N4CCN(C)CC4)cc3)nc12)c1ccccc1N(C)S(C)(=O)=O (stereo not shown) ? 999

Any idea what IC50 was measured for `COCc1ccccc1-c1cccc2nc(Nc3ccc4c(c3)CCN(CC(=O)N(C)C)CC4)nn12` ? 3000

// returns reported IC50 for input `CS(=O)(=O)c1ccc(-c2cccn3nc(NCc4ccccn4)nc23)cc1` 10000

I am curious: what IC50 value has been reported for `Cc1ccc(-n2cc(-c3cccn4nc(Nc5ccc(C6CCNCC6)cc5)nc34)cn2)cc1` ? 2420

Recorded IC50 of `CN1CCN(c2cccc(Nc3nc4c(NCc5ccccc5S(C)(=O)=O)cccn4n3)c2)CC1` , please. 200

For the compound shown here, `CN1Cc2ccc(Nc3nc4c(NCc5ccccc5N(C)S(C)(=O)=O)cccn4n3)cc2C1` , give the reported IC50. 17.8
